# assayed system: GDP-bound KRAS protein (aa 1-169), containing both G12C and C118A amino acid substitutions (Homo sapiens, UniProt P01116, C118A/G12C)
# Sequence (P01116 1-169 isoform P01116-2 G12C/C118A): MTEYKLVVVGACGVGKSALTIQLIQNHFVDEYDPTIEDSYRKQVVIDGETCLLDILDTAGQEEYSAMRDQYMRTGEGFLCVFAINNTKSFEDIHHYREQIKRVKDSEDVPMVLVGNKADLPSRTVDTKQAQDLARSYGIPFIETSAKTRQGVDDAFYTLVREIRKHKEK
# run description: Coupled nucleotide exchange assay (SOS-mediated, AlphaScreen)
# Format: biochemical
# conditions: 5 min compound pre-incubation
Reported Coupled exchange IC50 (5 min) values for the following molecules.

The examples below pair each entry with its known result.
molecule: C=CC(=O)N1CCN(c2nc(=O)n(-c3c(CO)cccc3C(C)C)c3nc(-c4ccccc4F)c(Cl)cc23)[C@@H](C)C1 (single isomer, unassigned) [Example 55-43-2]
quantity name: Coupled exchange IC50 (5 min)
endpoint result: 0.022 | nda μM

molecule: C=CC(=O)N1CCN(c2nc(=O)n(-c3ccccc3C(C)C)c3nc(-c4cc(O)ccc4F)c(Cl)cc23)[C@@H](C)C1 (single isomer, unassigned) [Example 54-88-1]
quantity name: Coupled exchange IC50 (5 min)
endpoint result: 0.077 | nda μM

Please find the next molecule below.
Input: Can you look up the measured Coupled exchange IC50 (5 min) of C=CC(=O)N1CCN(c2nc(=O)n(-c3c(C)ncnc3C(C)C)c3nc(-c4cc(F)ccc4F)c(Cl)cc23)[C@@H](C)C1 [Example 55-39] for me?
Output: 0.292 | nda μM

----------
# assayed system: GDP-bound KRAS protein (aa 1-169), containing both G12C and C118A amino acid substitutions (Homo sapiens, UniProt P01116, C118A/G12C)
# run description: Coupled nucleotide exchange assay (SOS-mediated, AlphaScreen)
# Type: biochemical
# conditions: 5 min compound pre-incubation
Reported Coupled exchange IC50 (5 min) values for the following molecules.

The examples below pair each entry with its known result.
molecule: C=CC(=O)N1CCN(c2nc(=O)n(-c3c(C)ncnc3C(C)C)c3nc(-c4ccccc4F)c(F)cc23)[C@@H](C)C1
Coupled exchange IC50 (5 min): 0.953 | nda μM
--
molecule: C=CC(=O)N1CCN(c2nc(=O)n(-c3ccccc3C(C)C)c3nc(-c4cc(OC(F)F)ccc4F)c(Cl)cc23)[C@@H](C)C1 (single isomer, unassigned) [Example 54-51-2]
Coupled exchange IC50 (5 min): 1.84 | nda μM
--
molecule: C=CC(=O)N1CCN(c2nc(=O)n(-c3c(C)ccnc3C(C)C)c3nc(-c4cc(O)c(F)cc4F)c(F)cc23)[C@@H](C)C1 (atropisomer, axis not shown; (M))
Coupled exchange IC50 (5 min): 0.262 | nda μM
--
molecule: C=CC(=O)N1CCN(c2nc(=O)n(-c3ccccc3C(C)C)c3nc(-c4cc(O)ccc4F)c(Cl)cc23)[C@@H](C)C1 (single isomer, unassigned) [Example 54-88-2]
Coupled exchange IC50 (5 min): 1.36 | nda μM

Input: Can you look up the measured Coupled exchange IC50 (5 min) of C=CC(=O)N1CCN(c2nc(=O)n(-c3c(C)ccnc3C(C)C)c3nc(-c4ccccc4F)c(C)nc23)[C@@H](C)C1 (single isomer, unassigned) [Example 143-2] for me?
Output: 2.43 | nda μM

----------
# assayed system: GDP-bound KRAS protein (aa 1-169), containing both G12C and C118A amino acid substitutions (Homo sapiens, UniProt P01116, C118A/G12C)
# run description: Coupled nucleotide exchange assay (SOS-mediated, AlphaScreen)
# Format: biochemical
# conditions: 5 min compound pre-incubation
Reported Coupled exchange IC50 (5 min) values for the following molecules.

molecule: C=CC(=O)N1CCN(c2nc(=O)n(-c3ccccc3C3(C(F)(F)F)CC3)c3nc(-c4c(O)cccc4F)c(F)cc23)[C@@H](C)C1 [Example 59-1]
Coupled exchange IC50 (5 min): 2.98 | nda μM
--
molecule: C=CC(=O)N1CCN(c2nc(=O)n(-c3ccccc3C3CCC3)c3nc(-c4ccccc4F)c(Cl)cc23)[C@@H](C)C1 (single isomer, unassigned) [Example 54-12-1]
Coupled exchange IC50 (5 min): 0.13 | nda μM
--
molecule: C=CC(=O)N1CCN(c2nc(=O)n(-c3c(C)cccc3C(C)C)c3nc(-c4nc(N)cc5ccccc45)c(F)cc23)[C@@H](C)C1 (single isomer, unassigned) [Example 71-2-2]
Coupled exchange IC50 (5 min): 1.06 | nda μM
--
molecule: C=CC(=O)N1CCN(c2nc(=O)n(-c3c(C)ncnc3C3CC3)c3nc(-c4ccccc4F)c(Cl)cc23)[C@@H](C)C1 [Example 60-30]
Coupled exchange IC50 (5 min): 0.218 | nda μM
--
molecule: C=CC(=O)N1CCN(c2nc(=O)n(-c3c(CC)cccc3CC)c3nc(N4CCC(CC(C)C)C4)c(Cl)cc23)[C@@H](C)C1 (some centres unmarked)
Coupled exchange IC50 (5 min): 65 | nda μM

Input: Can you look up the measured Coupled exchange IC50 (5 min) of C=CC(=O)N1CCN(c2nc(C)c(C(=O)N(C(C)C)C(C)C)c3nc(-c4ccccc4F)c(Cl)cc23)CC1 for me?
Output: 8.31 | nda μM

Input: Can you look up the measured Coupled exchange IC50 (5 min) of C=CC(=O)N1CCN(c2nc(=O)n(-c3c(C)cccc3C(C)C)c3nc(-c4ccccc4F)c(C)cc23)[C@@H](C)C1 (single isomer, unassigned) [Example 102-1] for me?
Output: 3.45 | nda μM

Input: Can you look up the measured Coupled exchange IC50 (5 min) of C=CC(=O)N1CCN(c2nc(=O)n(-c3ccccc3C(C)C)c3nc(-c4ncccc4F)c(Cl)cc23)[C@@H](C)C1 for me?
Output: 1.27 | nda μM

Input: Can you look up the measured Coupled exchange IC50 (5 min) of C=CC(=O)N1CCN(c2nc(=O)n(-c3ccccc3C(C)C)c3nc(-c4cccc(OC(F)F)c4)c(Cl)cc23)[C@@H](C)C1 for me?
Output: 1.56 | nda μM

Input: Can you look up the measured Coupled exchange IC50 (5 min) of C=CC(=O)N1C[C@@H](C)N(c2nc(=O)n(-c3c(C)ccnc3C(C)C)c3nc(-c4c(N)cccc4F)c(F)cc23)[C@@H](C)C1 (single isomer, unassigned) for me?
Output: 0.023 | nda μM

Input: Can you look up the measured Coupled exchange IC50 (5 min) of C=CC(=O)N1CCN(c2nc(=O)c(-c3ccccc3C(C)C)c3cc(-c4ccccc4F)c(C)nn23)[C@@H](C)C1 for me?
Output: 2.87 | nda μM

Input: Can you look up the measured Coupled exchange IC50 (5 min) of C=CC(=O)N1CCN(c2nc(=O)n(-c3c(OC)ncnc3C(C)C)c3nc(-c4ccccc4F)c(Cl)cc23)[C@@H](C)C1 (single isomer, unassigned) [Example 54-107-1] for me?
Output: 0.731 | nda μM

Input: Can you look up the measured Coupled exchange IC50 (5 min) of C=CC(=O)N1CCN(c2nc(=O)n(-c3c(C)ccnc3C(C)C)c3nc(-c4cc(OC)ccc4F)c(Cl)cc23)[C@@H](C)C1 (atropisomer, axis not shown; (M)) for me?
Output: 0.059 | nda μM

Input: Can you look up the measured Coupled exchange IC50 (5 min) of C=CC(=O)N1CCN(c2nc(=O)n(-c3c(C)ccnc3C(C)C)c3nc(-c4ccccc4F)c(Cl)nc23)[C@@H](C)C1 [Example 111] for me?
Output: 0.174 | nda μM

----------
# assayed system: GDP-bound KRAS protein (aa 1-169), containing both G12C and C118A amino acid substitutions (Homo sapiens, UniProt P01116, C118A/G12C)
# run description: Coupled nucleotide exchange assay (SOS-mediated, AlphaScreen)
# Assay type: biochemical
# conditions: 5 min compound pre-incubation
quantity name: Coupled exchange IC50 (5 min)

The examples below pair each entry with its known result.
compound: C=CC(=O)N1CCN(c2nc(=O)n(-c3ccccc3C(C)C)c3nc(Cl)c(Cl)cc23)[C@@H](C)C1 (atropisomer, axis not shown; (M)) [Example 61-1-1]
Coupled exchange IC50 (5 min): 2.94 | nda μM
--
compound: C=CC(=O)N1CCN(c2nc(=O)n(-c3cncnc3C(C)(C)C)c3nc(-c4ccccc4F)c(Cl)cc23)[C@@H](C)C1 (single isomer, unassigned) [Example 54-110-1]
Coupled exchange IC50 (5 min): 7.71 | nda μM
--
compound: C=CC(=O)N1CCN(c2nc(=O)n(-c3ccccc3C(C)C)c3nc(-c4ccccc4F)c(C)cc23)[C@@H](C)C1 (single isomer, unassigned) [Example 74-1-1]
Coupled exchange IC50 (5 min): 2.16 | nda μM

Input: Can you look up the measured Coupled exchange IC50 (5 min) of C=CC(=O)N1CCN(c2nc(=O)n(-c3c(C)ccnc3C(C)C)c3nc(-c4cc(N)ccc4Cl)c(F)cc23)[C@@H](C)C1 [Example 58-8] for me?
Output: 0.393 | nda μM

Input: Can you look up the measured Coupled exchange IC50 (5 min) of C=CC(=O)N1CCN(c2nc(=O)n(-c3ccccc3C3CCC3)c3nc(-c4ccccc4F)c(Cl)cc23)[C@@H](C)C1 [Example 54-12] for me?
Output: 0.289 | nda μM

Input: Can you look up the measured Coupled exchange IC50 (5 min) of C=CC(=O)N1CCN(c2nc(=O)n(-c3cn(Cc4ccccc4)nc3C3CC3)c3nc(-c4c(O)cccc4F)c(Cl)cc23)[C@@H](C)C1 for me?
Output: 0.695 | nda μM

Source of measurements: patent US11090304B2
